assay: Half life in healthy human at 800 mg, po administered with high fat meal; format: ADME, organism-based; conditions: in vivo
OBSERVATION TYPE: half-life (h)

substance_smiles=COc1cnc(OC)c2c1c(C(=O)C(=O)N1CCN(C(=O)c3ccccc3)CC1)cn2COP(=O)(O)O.NCCCC[C@H](N)C(=O)O unit_abbrev=h reading=11

###

assay: Cmax in high fat fed healthy human at 800 mg, po administered as capsule with high fat meal; assay type: ADME, organism-based; parameters: dose 800 mg, route oral; settings: in vivo
OBSERVATION TYPE: Cmax (ng/mL)

substance_smiles=COc1ncc(OC)c2c(C(=O)C(=O)N3CCN(C(=O)c4ccccc4)CC3)c[nH]c12 unit_abbrev=ng/mL reading=4100
